System Under Test: T1, Sec8-His (section 8 (Sec8), an antigenic region of CSP-1, tagged with a polyhistidine (His) tag)
T1 construct: also called Sec8-His antigen
T1 chain: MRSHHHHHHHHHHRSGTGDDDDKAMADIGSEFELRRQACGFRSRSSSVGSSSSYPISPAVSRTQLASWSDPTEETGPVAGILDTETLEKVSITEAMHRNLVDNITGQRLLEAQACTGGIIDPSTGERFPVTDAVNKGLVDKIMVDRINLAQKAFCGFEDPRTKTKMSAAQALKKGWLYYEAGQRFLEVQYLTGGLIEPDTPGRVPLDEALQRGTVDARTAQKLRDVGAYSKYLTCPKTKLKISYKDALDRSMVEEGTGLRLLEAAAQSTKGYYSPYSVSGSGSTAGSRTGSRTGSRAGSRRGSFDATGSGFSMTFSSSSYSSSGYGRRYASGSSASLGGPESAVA
Experiment Notes: BLI (Octet), single shot: antibody on anti-human IgG tips, 24 nM Sec8-His
Readout Label: binding result

Binder	Reported
humanized anti-CSP-1 antibody, Antibody Number 26 (Table 1) (antibody, human IgG1, V domains shown, also called Antibody 26) VH: EVQLVESGGDLVKPGGSLKLSCAASGFTFSRYGMSWVRQTPDKRLEWVATISIGGTYTYYPDSMKGRFTISRDNAKNTLYLQMSSLKSEDTAMYYCARRGYGNYSYYGMDYWGQGTSVTVSS VL: DIVMTQAAFSNPVTLGTSASISCRSSKSLLHSEGITYLYWYLQKPGQSPQLLIYQMSNLASGVPDRFSSSGSGTDFTLRISRVEAEDVGVYYCAQNLELPLTFGAGTKLELK	binds
humanized anti-CSP-1 antibody, Antibody Number 18 (Table 1) (antibody, human IgG1, V domains shown, also called Antibody 18) VH: EVQLVESGGDLVKPGGSLKLSCAASGFTFSRYGMSWVRQTPDKRLEWVATISIGGTYTYYPDSMKGRFTISRDNAKNTLYLQMSSLKSEDTAMYYCARRGYGQYSYYGMDYWGQGTSVTVSS VL: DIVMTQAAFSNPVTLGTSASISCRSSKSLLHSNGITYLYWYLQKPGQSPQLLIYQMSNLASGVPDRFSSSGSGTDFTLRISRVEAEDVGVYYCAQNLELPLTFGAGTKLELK	binds
humanized anti-CSP-1 antibody, Antibody Number 48 (Table 1) (antibody, human IgG1, V domains shown, also called Antibody 48) VH: QIQLVQSGSELKKPGASVKVSCKASGYTFTDYSMHWVRQAPGQGLEWMGWINTETGEPTYAQGFTGRFVFSLDTSVSTAYLQISSLKAEDTAVYFCAPGGFAYWGQGTLVTVSS VL: DIVMTQSPLSLPVTPGEPASISCRSSKSLLHSNGNTYLYWFLQKPGQSPQLLIYRLSNLASGVPDRFSGSGSGTDFTLKISRVEAEDVGVYYCMQHLEYPLTFGAGTKLELK	binds
